System: Pseudomonas aeruginosa
protocolNotes: Antibacterial activity against Pseudomonas aeruginosa 27853 assessed as inhibition of bacterial growth at 256 ug/ml measured after 25 hrs by absorbance based assay
Type: functional, organism-based
conditions: dose 256.0 µg/ml
Calls of active or inactive are those of the source. No cut-off for these calls is given here.
Mark one answer only. Choices: 1 (active), 0 (inactive)

C=C1C(c2ccc(F)cc2)=C(CNC(=O)c2ccc(C)cc2)C(=O)N1c1cccc(C)c1: 0

Read the next record carefully.
For C=C1C(c2ccc(F)cc2)=C(CNC(=O)c2ccc(C)cc2)C(=O)N1c1ccccc1C , what call appears in the results of this test?
0

* * *

Test system: Bacillus pumilus
protocolNotes: Antibacterial activity against penicillin-susceptible Bacillus pumilus CMCC63202 assessed as inhibition of bacterial growth incubated for 20 hrs by CLSI protocol based microdilution method
Format: functional
measurementLabel: MIC (µg/mL)
Answer with a number only, understood to be in µg/mL.

Dear colleague, please send me the reported MIC for C=C1OC(=O)C(CNC(=O)CCCC)=C1c1ccc(F)cc1 when you can.
16

Output measured MIC for this item: C=C1OC(=O)C(CNC(=O)c2ccc(OC)cc2)=C1c1ccc(F)cc1
32

State, in one line, measured MIC of O=C1C=C(Br)/C(=C/Br)O1
256

# return recorded MIC for entry C=C1C(c2ccc(F)cc2)=C(CNC(=O)c2ccc(C)cc2)C(=O)N1c1cccc(Cl)c1
512

Report measured MIC; entry is C=C1C(c2ccc(F)cc2)=C(CNC(=O)c2ccc(C)cc2)C(=O)N1CCCCC
512
